Exercise: for every item that follows, state its recorded inhibition in vivo at 3000 µmol/kg.
test system: Meth A fibrosarcoma; assay: Antitumor testing against Meth A fibrosarcoma (oral, s.c. implanted); assay type: in vivo, mice; conditions: Mus musculus, 3.0 mmole/kg/day × 7, p.o., read-out: Inhibition of tumor growth
Could you kindly put the unit after your number?

Past entries and their recorded results:
>>> recorded_result("C[C@H]1O[C@@H](n2cc(F)c(N)nc2=O)[C@H](O)[C@@H]1OC(=O)c1ccccc1")
"80%"
>>> recorded_result("C=CCC(=O)Nc1nc(=O)n([C@@H]2O[C@H](C)[C@@H](O)[C@H]2O)cc1F")
"76%"
>>> recorded_result("C[C@H]1O[C@@H](n2cc(F)c(NC(=O)Cc3ccccc3)nc2=O)[C@H](O)[C@@H]1O")
"94%"

We now examine a further compound.
Challenge: Report inhibition in vivo at 3000 µmol/kg for C[C@H]1O[C@@H](n2cc(F)c(N)nc2=O)[C@H](OC(=O)c2ccccc2)[C@@H]1OC(=O)c1ccccc1 tested on Meth A fibrosarcoma.
Response given: 56%

====

tested on: Meth A fibrosarcoma; assay: Antitumor testing against Meth A fibrosarcoma (oral, s.c. implanted); format: in vivo, mice; details: Mus musculus, 3.0 mmole/kg/day × 7, p.o., read-out: Inhibition of tumor growth
Exercise: for every item that follows, state its recorded inhibition in vivo at 3000 µmol/kg.
Give bare numbers, in %.

Past entries and their recorded results:
>>> recorded_result("CCCCC(=O)Nc1nc(=O)n([C@@H]2O[C@H](C)[C@@H](O)[C@H]2O)cc1F [Example 46, 5'-deoxy-5-fluoro-N^4-valerylcytidine]")
66
>>> recorded_result("COc1cc(C(=O)Nc2nc(=O)n([C@@H]3O[C@H](C)[C@@H](O)[C@H]3O)cc2F)cc(OC)c1OC [Example 3]")
79
>>> recorded_result("Cc1ccccc1C(=O)Nc1nc(=O)n([C@@H]2O[C@H](C)[C@@H](O)[C@H]2O)cc1F [Example 19]")
64

Challenge: Would you mind telling me what inhibition in vivo at 3000 µmol/kg value was observed for C[C@H]1O[C@@H](n2cc(F)c(NC(=O)c3ccccc3Cl)nc2=O)[C@H](O)[C@@H]1O [Example 22] ?
Response given: 42

====

tested on: Meth A fibrosarcoma; assay: Antitumor testing against Meth A fibrosarcoma (oral, s.c. implanted); type: in vivo, mice; conditions: Mus musculus, 3.0 mmole/kg/day × 7, p.o., read-out: Inhibition of tumor growth
measured.endpoint: inhibition in vivo at 3000 µmol/kg
Could you kindly put the unit after your number?

>>> recorded_result("CC(C)CC(=O)Nc1nc(=O)n([C@@H]2O[C@H](C)[C@@H](O)[C@H]2O)cc1F [Example 47]")
"59%"
>>> recorded_result("C[C@H]1O[C@@H](n2cc(F)c(NC(=O)c3cccc([N+](=O)[O-])c3)nc2=O)[C@H](O)[C@@H]1O [Example 30]")
"58%"
>>> recorded_result("COc1ccccc1C(=O)Nc1nc(=O)n([C@@H]2O[C@H](C)[C@@H](O)[C@H]2O)cc1F [Example 25]")
"34%"

We now examine a further compound.
Challenge: Would you mind telling me what inhibition in vivo at 3000 µmol/kg value was observed for Cc1cccc(C(=O)Nc2nc(=O)n([C@@H]3O[C@H](C)[C@@H](O)[C@H]3O)cc2F)c1 [Example 18] ?
Response given: 91%
